# assay remarks: Cytotoxicity against human central nervous system cancer cells
# Format: functional
# test context: Cancer cell lines, read-out: pTGI (converted)
recorded endpoint: TGI (µM)

| smiles record | recorded endpoint | observed value |
| --- | --- | --- |
| O=C1Nc2cccc(Cl)c2/C1=C\c1cccc(/C=C2/C(=O)Nc3cccc(Cl)c32)n1 | TGI | 2.82 |
| O=C1Nc2ccc(Br)cc2/C1=C\c1cccc(/C=C2/C(=O)Nc3ccc(Br)cc32)n1 | TGI | 14.1 |
| O=C1Nc2cc(Cl)ccc2/C1=C\c1cccc(/C=C2/C(=O)Nc3cc(Cl)ccc32)n1 | TGI | 7.76 |
| O=C1Nc2ccc(Cl)cc2/C1=C\c1cccc(/C=C2/C(=O)Nc3ccc(Cl)cc32)n1 | TGI | 2.75 |
